B1: CPEB3 Ribozyme (parent)
chain: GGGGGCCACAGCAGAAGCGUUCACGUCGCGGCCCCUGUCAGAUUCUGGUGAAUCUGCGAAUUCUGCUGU

variants of: B1; test: self-cleavage, relative activity (ratio to wild type); higher = more cleavage; co-transcriptional
measure: self-cleavage
Lab note: jot down the number only; don't add units.

Asked: For the variant shown here, GGGGGCCACAGCAGAAGCGUUCACGUCGCGGCCCCUGUCAGAUGCUGGUGAAUCUGCGUAUUCUGCUGU [U44G A59U] , give the reported self-cleavage.
Given back: 0.612

Asked: For the variant shown here, GGGGGCUACAGCAGAAGCGUUCACGUCGCGGCCCCUGUCAGAUUCUGGUGAAUCUCCGAAUUCUGCUGU [C7U G56C] , give the reported self-cleavage.
Given back: 0.618

Asked: For the variant shown here, GGGGGCCACAGCAGAAGGGUUCACGUCGCGCCCCCUGUCAGAUUCUGGUGAAUCUGCGAAUUCUGCUGU [C18G G31C] , give the reported self-cleavage.
Given back: 0.142

Asked: For the variant shown here, GGGGGCCACAGCAGAAGGGUUCACGUCGCGGCCCCGGUCAGAUUCUGGUGAAUCUGCGAAUUCUGCUGU [C18G U36G] , give the reported self-cleavage.
Given back: 0.145

Asked: For the variant shown here, GGCGGCCACAACAGAAGCGUUCACGUCGCGGCCCCUGUCAGAUUCUGGUGAAUCUGCGAAUUCUGCUGU [G3C G11A] , give the reported self-cleavage.
Given back: 0.0327

Asked: For the variant shown here, GGGGGCCACAGCAGAAGCGAUCACGUCGCGGCCACUGUCAGAUUCUGGUGAAUCUGCGAAUUCUGCUGU [U20A C34A] , give the reported self-cleavage.
Given back: 0.196

Asked: For the variant shown here, GGGAGCCACAGCAGAAGCGUUCACGUCGCGGCGCCUGUCAGAUUCUGGUGAAUCUGCGAAUUCUGCUGU [G4A C33G] , give the reported self-cleavage.
Given back: 0.68

Asked: For the variant shown here, GGGGGCCACAGAAGAACCGUUCACGUCGCGGCCCCUGUCAGAUUCUGGUGAAUCUGCGAAUUCUGCUGU [C12A G17C] , give the reported self-cleavage.
Given back: 0.139

Asked: For the variant shown here, GGGGGCCACAGCAGAAGCGUUCACGUCGCGGCCCCUGUCAGAUACUGGUGAAUCUGCGACUUCUGCUGU [U44A A60C] , give the reported self-cleavage.
Given back: 0.423

Asked: For the variant shown here, GGGGGCCACAGCAGAAGCGUUCACGUCGCGGCCCCUGUCAGAUUCUGGUGUAUCUGUGAAUUCUGCUGU [A51U C57U] , give the reported self-cleavage.
Given back: 0.388

Asked: For the variant shown here, GGGGGCCACAGCAGAAGCGUUCACGUCGCGGCCCCUGUCAGAUUGUGGUGAAUCUGCGAAUUCUGCUAU [C45G G68A] , give the reported self-cleavage.
Given back: 0.942

Asked: For the variant shown here, GGGGGCCACAGCAGAAACGUUCACGUCGCGGCUCCUGUCAGAUUCUGGUGAAUCUGCGAAUUCUGCUGU [G17A C33U] , give the reported self-cleavage.
Given back: 0.43

Asked: For the variant shown here, GGGGGCCACAGCAGAAGCGUUCACGUCGCGGCCCCUGUAAGAUUCUGGUGAAUCUACGAAUUCUGCUGU [C39A G56A] , give the reported self-cleavage.
Given back: 0.898

Asked: For the variant shown here, GGGGGCCACAGCAGAAGCGUUCAUGUCGCGGCCCCUGUCAGAUUCUGGUGAAUCUGGGAAUUCUGCUGU [C24U C57G] , give the reported self-cleavage.
Given back: 0.24

Asked: For the variant shown here, GGGGGCCACAGCAGAAGCGUUCACGUCGCGGCCCCUGUCAGAUUCUGGUGAAUCUGCGAAUUAUGCUAU [C63A G68A] , give the reported self-cleavage.
Given back: 0.964

Asked: For the variant shown here, GGGGGCCACAGCCGAAGCGUUCACGUCGCGGCCCCUGUCAGAAUCUGGUGAAUCUGCGAAUUCUGCUGU [A13C U43A] , give the reported self-cleavage.
Given back: 0.514

Asked: For the variant shown here, GGGGGCCACAGCAGAAGUGUUCACGUCGCGGCCCCUGUCAGAUUCUGGUGAAUCUGAGAAUUCUGCUGU [C18U C57A] , give the reported self-cleavage.
Given back: 0.24

Asked: For the variant shown here, GGGGGCCACAGCAGAAGCGUUCACGUCGCGGCCCCUGUCAGUUUCUGGUGAAGCUGCGAAUUCUGCUGU [A42U U53G] , give the reported self-cleavage.
Given back: 1

Asked: For the variant shown here, GCGGGCCACAGCAGAAGCGUUCACGUCGCGGCUCCUGUCAGAUUCUGGUGAAUCUGCGAAUUCUGCUGU [G2C C33U] , give the reported self-cleavage.
Given back: 0.0465

Asked: For the variant shown here, CGGGGCCACAGCCGAAGCGUUCACGUCGCGGCCCCUGUCAGAUUCUGGUGAAUCUGCGAAUUCUGCUGU [G1C A13C] , give the reported self-cleavage.
Given back: 0.143

Asked: For the variant shown here, GGGGUCCACAGCAGAAGCGUUCACGUCGCGGCCCCUGUCAGAUUCUAGUGAAUCUGCGAAUUCUGCUGU [G5U G47A] , give the reported self-cleavage.
Given back: 0.294

Asked: For the variant shown here, GGGGGCCACAGCAGAAGCGUUCACGUCGCGGCCCGUGUCAGAUUAUGGUGAAUCUGCGAAUUCUGCUGU [C35G C45A] , give the reported self-cleavage.
Given back: 0.475

Asked: For the variant shown here, GGGAGCCACAGCAGAAACGUUCACGUCGCGGCCCCUGUCAGAUUCUGGUGAAUCUGCGAAUUCUGCUGU [G4A G17A] , give the reported self-cleavage.
Given back: 0.175

Asked: For the variant shown here, GGGGGCCACAGCAGAAGCGUUCACGUCGCGGCGCCUGUCAGAUUCUAGUGAAUCUGCGAAUUCUGCUGU [C33G G47A] , give the reported self-cleavage.
Given back: 0.663

Asked: For the variant shown here, GGGGGCCACAGCAGAAGCGUUCACGACGCGGCCCCUGUCAGAUUCUGCUGAAUCUGCGAAUUCUGCUGU [U26A G48C] , give the reported self-cleavage.
Given back: 0.882

Asked: For the variant shown here, GGGGGCCACAGCAGAAGCGUUCACGUCGCGGCCCCUGUCAGAUUCUGGUCAAUCUGCGAAUUCUGCUUU [G50C G68U] , give the reported self-cleavage.
Given back: 0.973

Asked: For the variant shown here, GGGGGCCACAGCAGAAGCGUUGACGUCGCGGCCCCUGUCAGAUUCUGGUUAAUCUGCGAAUUCUGCUGU [C22G G50U] , give the reported self-cleavage.
Given back: 0.145

Asked: For the variant shown here, GGGGGCCACAGCAAAAGCGUUCACGUCGCGGACCCUGUCAGAUUCUGGUGAAUCUGCGAAUUCUGCUGU [G14A C32A] , give the reported self-cleavage.
Given back: 0.336

Asked: For the variant shown here, GGGGGCCACAGCUGAAGCGUUCACGUCGCUGCCCCUGUCAGAUUCUGGUGAAUCUGCGAAUUCUGCUGU [A13U G30U] , give the reported self-cleavage.
Given back: 0.228

Asked: For the variant shown here, CGGGGCAACAGCAGAAGCGUUCACGUCGCGGCCCCUGUCAGAUUCUGGUGAAUCUGCGAAUUCUGCUGU [G1C C7A] , give the reported self-cleavage.
Given back: 0.144

Asked: For the variant shown here, GGGGGCCACAGCAGAAGCGUUCACGUCGCGGCCCCGGUCAGAUUCUGGUGAAUCUGCGAAUUCUACUGU [U36G G65A] , give the reported self-cleavage.
Given back: 0.207

Asked: For the variant shown here, GGGGGCCACAGCAGAAGCGUUCACGUCGCGGCCCCUGUCAGAUUCUGGUGAAUCUGCGAAUGCUGUUGU [U62G C66U] , give the reported self-cleavage.
Given back: 0.579

Asked: For the variant shown here, GGGGGCCACAGCAGAAGCGUUCACGUCGCGGCCUCUGUCAGAUUCUGGUGAAUCUGCGAAUUCUGAUGU [C34U C66A] , give the reported self-cleavage.
Given back: 0.973

Asked: For the variant shown here, GGGGGCCACAGCAGAAGCGUUCACGUCGCGGCCUCUGUCAGAUUCAGGUGAAUCUGCGAAUUCUGCUGU [C34U U46A] , give the reported self-cleavage.
Given back: 1

Asked: For the variant shown here, GGGGGCCACAGCAGAAGCGUUCACGUCGCGGCCCCUGUCAGAUUCUUGUGAAUCUGCGAAUUCUGUUGU [G47U C66U] , give the reported self-cleavage.
Given back: 1.02

Asked: For the variant shown here, GGGGGCCACAGCAGAAGCGUUCACGUCGCGUCCCCUGUCAGAUUCUGGUGAAUCUGCCAAUUCUGCUGU [G31U G58C] , give the reported self-cleavage.
Given back: 0.611

Asked: For the variant shown here, GGGGGCCACAGGAGAAGCGUUCACGUCGCGGCCCCUGUCAGAUUCUGGUUAAUCUGCGAAUUCUGCUGU [C12G G50U] , give the reported self-cleavage.
Given back: 0.84

Asked: For the variant shown here, GGGGGCCACAGCAGAAGCGUUCACGUCGCGGCCCCUGUCAGAUUCUGGUGAAUCUGCGGAUUCUGCAGU [A59G U67A] , give the reported self-cleavage.
Given back: 0.991

Asked: For the variant shown here, GGGGGCGACAGCAGAAGCGGUCACGUCGCGGCCCCUGUCAGAUUCUGGUGAAUCUGCGAAUUCUGCUGU [C7G U20G] , give the reported self-cleavage.
Given back: 0

Asked: For the variant shown here, GGGGGCCACAGCAGAAGCGUUCAUGUCGCGGCCGCUGUCAGAUUCUGGUGAAUCUGCGAAUUCUGCUGU [C24U C34G] , give the reported self-cleavage.
Given back: 0.283

Asked: For the variant shown here, GGGGGCCACAGCAGAAGCGUUCACGUCGUGGCCCCUGUCAGAUUCUGGGGAAUCUGCGAAUUCUGCUGU [C29U U49G] , give the reported self-cleavage.
Given back: 0.514

Asked: For the variant shown here, GGGGGCCACAGCAGAUGCGUUCACGUCGCGGCCCCUGUCAGAUUCUGGUGAAUCUGCGAAUUCUGCAGU [A16U U67A] , give the reported self-cleavage.
Given back: 0.877

Asked: For the variant shown here, GGGGGCCACAGCAGAAGCGUUCACGACGCGGCCCCUGUCAGAUUCUGGUGAUUCUGCGAAUUCUGCUGU [U26A A52U] , give the reported self-cleavage.
Given back: 0.816

Asked: For the variant shown here, GGGGGCCACAGCAGAAGCGUUCACGUCGCGGCCCCUGUCAGAUACUGGUGAAUCUGCGAAUUCGGCUGU [U44A U64G] , give the reported self-cleavage.
Given back: 0.8

Asked: For the variant shown here, GGGGGCCACAGCAGAGGCGUUCACGUCGCGGCCCUUGUCAGAUUCUGGUGAAUCUGCGAAUUCUGCUGU [A16G C35U] , give the reported self-cleavage.
Given back: 0.893

Asked: For the variant shown here, GGGGGCCACAGCACAAGCGUUCACGUCGCGGCCCCUGUCAGAUUCUGGUGAAUCUGCGCAUUCUGCUGU [G14C A59C] , give the reported self-cleavage.
Given back: 0.262

Reference source: the RNAGym collection of RNA variant scans (doi:10.7554/elife.80360)
